- assay_system: Heme oxygenase 2 (Homo sapiens)
- assay_summary: Covalent binding affinity to HMOX2 at Cys282 residue in human NCI-H358 cells assessed as reduction of log2 H/L ratio for tryptic peptide […] incubated for 4 hrs followed by cell lysis and subsequently labelled with light thiol probe N-((S)-18-iodo-11-isopropyl-10,13,17-trioxo-3,6-dioxa-9,12,16-triazaoctadecyl)-6-((4R,5S)-5-methyl-2-oxoimidazolidin-4-yl)hexanamide and heavy thiol probe 4 for 1 hr under dark conditions followed by tryptic digestion for overnight and measured by discovery ABPP based nano LC-MS/MS analysis
property: pIC50
FYI, pIC50 means -log10 of a concentration in mol per litre.

Data request: Identify the reported pIC50 for the following entry. C=CC(=O)N1CCN(c2ncnc3c(F)c(-c4c(O)cccc4F)c(Cl)cc23)CC1
Data returned: 5.12

====

- assay_system: GTPase KRas (Homo sapiens, UniProt P01116, G12C)
- assay_summary: Covalent binding affinity to KRAS G12C mutant at Cys12 residue in human NCI-H358 cells assessed as reduction of log2 H/L ratio for tryptic peptide […] incubated for 4 hrs followed by cell lysis and subsequently labelled with light thiol probe N-((S)-18-iodo-11-isopropyl-10,13,17-trioxo-3,6-dioxa-9,12,16-triazaoctadecyl)-6-((4R,5S)-5-methyl-2-oxoimidazolidin-4-yl)hexanamide and heavy thiol probe 4 for 1 hr under dark conditions followed by tryptic digestion for overnight and measured by discovery ABPP based nano LC-MS/MS analysis
property: IC50 (nM)
Dear colleague, please return just the value in nM, with no unit written.

Data request: Lab note: GTPase KRas (Homo sapiens, UniProt P01116, G12C) assay, enter IC50 for C=CC(=O)N1CCN(c2ncnc3c(F)c(-c4c(O)cccc4F)c(Cl)cc23)CC1 here
Data returned: 1590

====

- assay_system: UniProt Q08257
- Sequence (Q08257 whole entry): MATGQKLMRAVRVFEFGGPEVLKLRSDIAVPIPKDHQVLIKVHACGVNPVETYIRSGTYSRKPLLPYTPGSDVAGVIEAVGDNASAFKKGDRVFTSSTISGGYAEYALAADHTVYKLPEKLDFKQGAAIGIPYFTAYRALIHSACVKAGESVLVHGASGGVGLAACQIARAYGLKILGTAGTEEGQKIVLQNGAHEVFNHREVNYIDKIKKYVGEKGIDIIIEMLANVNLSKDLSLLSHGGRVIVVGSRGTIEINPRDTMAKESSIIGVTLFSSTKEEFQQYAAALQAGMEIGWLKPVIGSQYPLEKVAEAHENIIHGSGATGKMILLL
- assay_summary: Covalent binding affinity to CRYZ at Cys45 residue in human NCI-H358 cells assessed as reduction of log2 H/L ratio for tryptic peptide […] incubated for 4 hrs followed by cell lysis and subsequently labelled with light thiol probe N-((S)-18-iodo-11-isopropyl-10,13,17-trioxo-3,6-dioxa-9,12,16-triazaoctadecyl)-6-((4R,5S)-5-methyl-2-oxoimidazolidin-4-yl)hexanamide and heavy thiol probe 4 for 1 hr under dark conditions followed by tryptic digestion for overnight and measured by discovery ABPP based nano LC-MS/MS analysis
property: pIC50
FYI, pIC50 means -log10 of a concentration in mol per litre.

Data request: Identify the reported pIC50 for the following entry. C=CC(=O)N1CCN(c2ncnc3c(F)c(-c4c(O)cccc4F)c(Cl)cc23)CC1
Data returned: 5.07
